Quick reference: MIC of the listed items.
- Tested on: Staphylococcus aureus
- PROCEDURE SUMMARY: Antibacterial activity against Staphylococcus aureus ATCC 25923 incubated for 18 hrs by resazurin dye based broth microdilution method
- Type: functional

COMPOUND	EXPERIMENTAL SYSTEM	MIC
CCCCCCCCCCCCCCCCCC(N)COCc1ccccc1 (stereo unspecified)	Staphylococcus aureus	> 512 µM
CCCCCCCCCCCCCCCCCCCC(COCc1ccccc1)NCC (stereo unspecified)	Staphylococcus aureus	> 512 µM
CCCCCCCCCCCCCCCCCC(COCc1ccccc1)NCCCCCC (stereo unspecified)	Staphylococcus aureus	> 512 µM
CCCCCCCCCCCCCCCC(CN=[N+]=[N-])NC(=O)OC(C)(C)C (stereo unspecified)	Staphylococcus aureus	> 512 µM
CCCCCCCCCCCCCCCCCCCC(N)COCc1ccccc1 (stereo unspecified)	Staphylococcus aureus	> 512 µM
CCCCCCCCCCCCCCCC(CNCC)NC(=O)OC(C)(C)C (stereo unspecified)	Staphylococcus aureus	≤ 4 µM

Entry source: ChEMBL document CHEMBL5625167
